Measured % Inhibition, cyclin D1/CDK4 kinase of individual entries
- target.or.system: CDK4/Cyclin D1 complex (UniProt P11802 1-303; P24385 1-295); further: test concentration or dose not given here
- Sequence (P11802 other isoform, or with tags, fused parts or gaps, chain 1 of 2): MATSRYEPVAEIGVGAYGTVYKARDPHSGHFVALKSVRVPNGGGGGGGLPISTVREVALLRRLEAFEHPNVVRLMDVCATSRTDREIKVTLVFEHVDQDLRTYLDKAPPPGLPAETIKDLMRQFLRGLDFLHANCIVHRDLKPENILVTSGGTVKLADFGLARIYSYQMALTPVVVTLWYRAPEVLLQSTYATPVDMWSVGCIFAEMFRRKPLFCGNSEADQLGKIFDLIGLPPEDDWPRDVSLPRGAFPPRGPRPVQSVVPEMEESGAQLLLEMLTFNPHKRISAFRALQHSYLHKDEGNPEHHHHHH
- Sequence (P24385 whole entry, chain 2 of 2): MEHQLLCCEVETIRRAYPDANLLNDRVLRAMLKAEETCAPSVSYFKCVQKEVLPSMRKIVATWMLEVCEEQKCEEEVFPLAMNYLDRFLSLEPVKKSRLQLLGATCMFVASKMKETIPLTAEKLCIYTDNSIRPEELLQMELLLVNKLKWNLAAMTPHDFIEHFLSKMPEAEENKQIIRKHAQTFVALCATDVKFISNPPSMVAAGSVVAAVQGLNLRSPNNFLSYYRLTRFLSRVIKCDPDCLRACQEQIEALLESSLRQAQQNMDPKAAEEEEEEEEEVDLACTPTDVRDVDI
- test.description: cell-based or functional assay
Ends that are not written are not given here.
measured.property: % Inhibition, cyclin D1/CDK4 kinase (%)

1. YHSKRRLIFS-NH2 [YHSKRRLIFS-NH2]
70
2. MTDFYHSKRRLI-NH2 [MTDFYHSKRRLI-NH2]
11
3. TSMTDFYHSKRR-NH2 [TSMTDFYHSKRR-NH2]
30
4. YHSKR-NH2 [YHSKR-NH2]
10
5. YHSKRRLI-NH2 [YHSKRRLI-NH2]
15
6. DFAHSKRRLIFS-NH2 [DFAHSKRRLIFS-NH2]
56
7. SKRRLIFSKRKP-NH2 [SKRRLIFSKRKP-NH2]
40
8. YHSKRRL-NH2 [YHSKRRL-NH2]
10
9. DFYHSKRALIFS-NH2 [DFYHSKRALIFS-NH2]
30
10. YHSKRRLIF-NH2 [p21 (151-159) YHSKRRLIF-NH2]
70
11. DFYHSKARLIFS-NH2 [DFYHSKARLIFS-NH2]
30
12. AFYHSKRRLIFS-NH2 [AFYHSKRRLIFS-NH2]
72

# credit: patent US20040176301A1
